- Test target: T1, recombinant human VEGF165 (human, UniProt P15692 27-191)
- T1 construct: mature; Isoform VEGF165 of the entry; also called hVEGF165; hVEGF
- T1 sequence (P15692 other isoform, or with tags, fused parts or gaps): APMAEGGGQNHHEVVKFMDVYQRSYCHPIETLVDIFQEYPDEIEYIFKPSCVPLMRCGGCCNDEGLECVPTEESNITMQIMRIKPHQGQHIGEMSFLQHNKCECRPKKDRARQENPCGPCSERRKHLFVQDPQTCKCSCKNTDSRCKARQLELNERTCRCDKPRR
- Experiment notes: Biacore SPR, VEGF immobilized, pH 5
Measured metric: kon (M⁻¹ s⁻¹)
Hi! Could you send only the number? It should be in M⁻¹ s⁻¹, unit omitted.

Quick one: kon for 509-max (scFv, VL and VH tied by name; also called Protein Nr; 855) scFv: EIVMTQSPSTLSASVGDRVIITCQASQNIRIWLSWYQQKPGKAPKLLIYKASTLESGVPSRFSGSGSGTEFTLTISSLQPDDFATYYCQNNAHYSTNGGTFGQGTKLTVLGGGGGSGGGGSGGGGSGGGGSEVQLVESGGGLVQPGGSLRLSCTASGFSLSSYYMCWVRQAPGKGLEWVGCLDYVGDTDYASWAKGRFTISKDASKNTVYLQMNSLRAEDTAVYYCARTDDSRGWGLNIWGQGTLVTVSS ?
2.26e+06

Same lookup for 511-min (scFv, VL and VH tied by name; also called Protein Nr) scFv: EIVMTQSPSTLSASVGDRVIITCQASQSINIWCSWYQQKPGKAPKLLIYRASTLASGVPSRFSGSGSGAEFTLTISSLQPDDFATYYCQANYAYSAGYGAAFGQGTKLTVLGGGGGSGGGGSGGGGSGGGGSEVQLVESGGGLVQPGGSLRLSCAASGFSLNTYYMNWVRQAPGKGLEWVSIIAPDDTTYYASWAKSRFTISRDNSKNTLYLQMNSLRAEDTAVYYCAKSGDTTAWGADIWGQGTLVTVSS , please.
505000

Can you handle 578-min (scFv, also called EP578 min; Protein Nr; 820) scFv: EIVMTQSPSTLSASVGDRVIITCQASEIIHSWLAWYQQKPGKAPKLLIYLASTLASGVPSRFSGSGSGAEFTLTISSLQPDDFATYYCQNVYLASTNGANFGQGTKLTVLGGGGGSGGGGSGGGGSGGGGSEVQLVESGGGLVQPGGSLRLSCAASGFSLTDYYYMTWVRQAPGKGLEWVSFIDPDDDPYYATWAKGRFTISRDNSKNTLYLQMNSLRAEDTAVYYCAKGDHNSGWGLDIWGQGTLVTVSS next?
1.14e+06
